// reported ELISA PD-L1 Fc (RSU) for each item listed
assayed.system: T1, recombinant biotinylated PD-L1 (rhPD-L1/Fc Chimera, R&D Systems 156-B7) (human, UniProt Q9NZQ7 19-238, biotinylated (sites not given))
T1 construct: Bought Fc chimera; also called human PD-L1
T1 sequence (Q9NZQ7 19-238, change not shown): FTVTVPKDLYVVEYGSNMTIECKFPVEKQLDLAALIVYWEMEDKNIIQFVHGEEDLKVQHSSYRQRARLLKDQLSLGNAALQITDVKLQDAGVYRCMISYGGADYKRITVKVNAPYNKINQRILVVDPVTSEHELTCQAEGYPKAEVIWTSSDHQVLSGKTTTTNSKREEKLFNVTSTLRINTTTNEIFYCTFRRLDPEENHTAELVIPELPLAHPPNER
assay.summary: ELISA, lysate on plate-bound antigen
Procedure: Streptavidin-coated Maxisorp plates (Nunc catalog 436110) were blocked for 1 h in Starting Block T20 (Pierce) and then coated with biotinylated PD-L1 (using same antigen as in panning) or negative controls (an unrelated Fc-fused recombinant protein and human serum albumin) for 1 h. Plates were rinsed with TBST and diluted lysate was applied to plates for 1 h. […]
outcome.measure: ELISA PD-L1 Fc (RSU)

1) ISOP194AR9P1D8 (designed binder, not shown: small tags and cut ends, FN3 domain; E. coli lysate in the ELISA) LPAPKNLVVSRVTEDSARLSWDTWNDFFDSFLIQYQESEKVGEAIVLTVPGSERSYDLTGLKPGTEYTVSIYGVYQRKVIWLSNPLSAIFTT: 923000
2) ISOP194BR9P1D10 (designed binder, not shown: small tags and cut ends, FN3 domain; E. coli lysate in the ELISA) LPAPKNLVVSRVTEDSARLSWYEDNTERFDSFLIQYQESEKVVEAIVLTVPGSERSYDLTGLKPGTEYTVSIYGVYIRVQVLWFSNPLSAIFTT: 1.67e+06
3) ISOP121BR5P1G2 (designed binder, not shown: small tags and cut ends, FN3 domain; E. coli lysate in the ELISA) LPAPKNLVVSRVTEDSARLSWADELHHANHFDSFLIQYQESEKVGEAIVLTVPGSERSYDLTGLKPGTEYTVSIYGVYDRHYEIHFYSNPLSAIFTT: 16700
4) ISOP121BR5P1B7 (designed binder, not shown: small tags and cut ends, FN3 domain; E. coli lysate in the ELISA) LPAPKNLVVSRITEDSARLSWKWEEGFFDSFLIQYQESEKVGEAIVLTVPGSERSYDLTGLKPGTEYTVSIYGVYQRHASAFVSNPLSAIFTT: 11400
5) ISOP121AR5P1H5 (designed binder, not shown: small tags and cut ends, FN3 domain; E. coli lysate in the ELISA) LPAPKNLVVSRVTEDSARLSWEDAVKHIWFDSFLIQYQESEKVGEAIVLTVPGSERSYDLTGLKPGTEYTVSIYGVWIASVWRSNPLSAIFTT: 171000
6) ISOP194AR9P1H10 (designed binder, not shown: small tags and cut ends, FN3 domain; E. coli lysate in the ELISA) LPAPKNLVISRVTEDSARLSWPAHYHSAFFDSFLIQYQESEKVGEAIVLTVPGSERSYDLTGLKPGTEYTVSIYGVYQRKVEFHSNPLSAIFTT: 5.21e+06
7) ISOP194HR9P1D11 (designed binder, not shown: small tags and cut ends, FN3 domain; E. coli lysate in the ELISA) LPAPKNLVVSRVTEDSARLSWTAPDAAFDSFSILYGELIGDGEAIVLTVPGSERSYDLTGLKPGTEYTVYIFGVKGGRYSRPLSAIFTT: 6.62e+06
8) ISOP194ER9P1G3 (designed binder, not shown: small tags and cut ends, FN3 domain; E. coli lysate in the ELISA) LPAPKNLIVSRVTEDSARLSWTAPDAAFDSFRIAYYETMVSGEAIVLTVPGSERSYDLTGLKPGTEYAVIIKGVKGGKPSWPLSAIFTT: 4.29e+06
9) ISOP121HR5P1H2 (designed binder, not shown: small tags and cut ends, FN3 domain; E. coli lysate in the ELISA) LPAPKNLVVSRVTEDSARLSWTAPDAAFDSFDIYYLEYDYSGEAIVLTVPGSERSYDLTGLKPGTEYDVLIIGVKGGSLSTPLSAIFTT: 21000
10) ISOP121BR5P1D10 (designed binder, not shown: small tags and cut ends, FN3 domain; E. coli lysate in the ELISA) LPAPKNLVVSRVTEDSARLSWGKKSHFFDSFLIQYQESEKVGEAIVLTVPGSERSYDLTGLKPGTEYTVSIYGVYTRGQCEWESNQLSAIFFTT: 1.54e+06
11) ISOP194BR9P1E4 (designed binder, not shown: small tags and cut ends, FN3 domain; E. coli lysate in the ELISA) LPAPKNLVVSRVTEDSARLSWTTAFHNEYFDSFLIQYQESEKVGEAIVLTVPGSERSYDLTGLKPGTEYTVSIYGVYQRGYHNWFSNPLSAIFTT: 9.79e+06
12) ISOP194AR9P1H9 (designed binder, not shown: small tags and cut ends, FN3 domain; E. coli lysate in the ELISA) LPAPKNLVVSRVTEDSARLSWEWLEHFDSFQIQYQESEKVGEAIVLTVPGSERSYDLTGLKPGTEYTVSIYGVYQRKVEFHSNPLSAIFTT: 2.59e+06
13) ISOP121AR5P1H2 (designed binder, not shown: small tags and cut ends, FN3 domain; E. coli lysate in the ELISA) LPAPKNLVVSRVTEDSARLSWVIDEFIPLFDSFLIQYQESEKVGEAIVLTVPGSERSYDLTGLKPGTEYTVSIYGVLAKNIGISNPLSAIFTT: 927000
14) ISOP121BR5P1D7 (designed binder, not shown: small tags and cut ends, FN3 domain; E. coli lysate in the ELISA) LPAPKNLGCFSRYRRLSRLSWETPYPSLSNFDSFLIQYQESEKVGEAIVLTVPGSERSYDLTGLKPGTEYTVSIYGVLKLSAAWWPSNPLSAIFTT: 12800
15) ISOP194AR9P1F2 (designed binder, not shown: small tags and cut ends, FN3 domain; E. coli lysate in the ELISA) LPAPKNLVISRVTEDSARLSWEWLEHFDSFLIQYQESEKVGEAIVLTVPGSERSYDLTGLKPGTEYTVSIYGVYNRKVNFYSNPLSAIFTT: 1.63e+07
16) ISOP194BR9P1A5 (designed binder, not shown: small tags and cut ends, FN3 domain; E. coli lysate in the ELISA) LPAPKNLVVSRVTEDSARLSWFNADEEYFDSFLIQYQESEKVGEAIVLTVPGSERSYDLTGLKPGTEYTVSIYGVYQRGYHNWFSNPLSAIFTT: 3.18e+06
17) ISOP194AR9P1C3 (designed binder, not shown: small tags and cut ends, FN3 domain; E. coli lysate in the ELISA) LPAPKNLVVSRVTQNSARLSWEWLEHFDSFLIHYQESEKVGEAIVLTVPGSERSYDLTGLKPGTEYTVSIYGVYQRKVEFHSNPLSAIFTT: 3.55e+06
